- test_system: Human plasma kallikrein (Homo sapiens)
- Construct: yields a heavy chain (371 amino acids) and a light chain (248 amino acids)
- Sequence (P03952 391-638 limits assumed): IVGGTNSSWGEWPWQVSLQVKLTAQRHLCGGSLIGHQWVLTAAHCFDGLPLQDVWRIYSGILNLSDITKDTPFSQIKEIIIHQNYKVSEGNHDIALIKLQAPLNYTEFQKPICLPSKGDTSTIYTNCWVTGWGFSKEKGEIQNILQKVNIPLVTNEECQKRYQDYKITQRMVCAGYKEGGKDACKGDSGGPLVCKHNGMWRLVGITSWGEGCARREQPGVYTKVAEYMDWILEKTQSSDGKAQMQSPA
- Sequence (P03952 20-390 partner limits assumed): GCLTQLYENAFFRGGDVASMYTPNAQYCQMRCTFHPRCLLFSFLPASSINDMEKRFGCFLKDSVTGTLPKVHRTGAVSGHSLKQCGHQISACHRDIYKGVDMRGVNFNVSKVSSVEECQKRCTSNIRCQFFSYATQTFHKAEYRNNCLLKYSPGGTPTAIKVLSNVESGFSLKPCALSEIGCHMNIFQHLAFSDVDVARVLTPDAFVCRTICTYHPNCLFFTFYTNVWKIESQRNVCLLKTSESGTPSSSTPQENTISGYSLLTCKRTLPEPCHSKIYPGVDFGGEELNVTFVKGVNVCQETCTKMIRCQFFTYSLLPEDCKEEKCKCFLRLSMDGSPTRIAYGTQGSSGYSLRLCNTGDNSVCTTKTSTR
- assay_info: Kallikrein Assay (fluorogenic substrate hydrolysis, AFC release)
- condition_info: purified Human plasma kallikrein 0.5 nM; substrate Acetyl-K—P—R-AFC 100 mM; 50 mM HEPES pH 7.4
property_measured: IC50 (nM)

>>> assay_result("Cc1nn(C(C)c2cnc(N3C[C@H]4C[C@H]4C3=O)nc2)cc1C(=O)N[C@H]1C[C@@H](c2cc(Cl)ccc2C#N)C1 (single isomer, unassigned) [Example 16]")
6.7
>>> assay_result("CC(c1ncc(N2C[C@H]3C[C@H]3C2=O)cc1F)n1cc(C(=O)N[C@H]2C[C@@H](c3cc(Cl)ccc3C#N)C2)nn1 (single isomer, unassigned) [Example 93]")
4.3
>>> assay_result("COCc1nn(C(C)c2cnc(N3C[C@H]4C[C@H]4C3=O)cc2C)cc1C(=O)N[C@H]1C[C@@H](c2cc(Cl)ccc2C#N)C1 (single isomer, unassigned) [Example 49]")
0.4

###

Reported pIC50 values are given for each entry in this list.
- test_system: Human plasma kallikrein (Homo sapiens)
- Construct: yields a heavy chain (371 amino acids) and a light chain (248 amino acids)
- assay_info: Kallikrein Assay (fluorogenic substrate hydrolysis, AFC release)
- condition_info: purified Human plasma kallikrein 0.5 nM; substrate Acetyl-K—P—R-AFC 100 mM; 50 mM HEPES pH 7.4
pIC50: −log10 of the molar value.
property_measured: pIC50

>>> assay_result("Cc1nc(C(C)n2cc(C(=O)N[C@H]3C[C@@H](c4cc(Cl)ccc4C#N)C3)nn2)cnc1N1C[C@H]2CC2C1=O (single isomer, unassigned)")
9.05
>>> assay_result("CC(c1cnc(N2C[C@H]3C[C@H]3C2=O)c(F)c1)n1cc(C(=O)N[C@H]2C[C@@H](c3cc(Cl)ccc3C#N)C2)nn1 (single isomer, unassigned) [Example 103]")
8.68
>>> assay_result("COc1c(N2C[C@H]3C[C@H]3C2=O)ncc(C(C)n2cc(C(=O)N[C@H]3C[C@@H](c4cc(Cl)ccc4C#N)C3)nn2)c1C (single isomer, unassigned) [Example 111]")
9.52
>>> assay_result("Cc1cc(N2C[C@H]3C[C@H]3C2=O)ncc1C1(n2cc(C(=O)N[C@H]3C[C@@H](c4cc(Cl)ccc4C#N)C3)nn2)CC1")
8.17
>>> assay_result("COc1c(N2C[C@H]3C[C@H]3C2=O)ncc(C(C)n2cc(C(=O)N[C@H]3C[C@@H](c4cc(Cl)ccc4C#N)C3)cn2)c1C (single isomer, unassigned) [Example 43]")
8.74
>>> assay_result("Cc1cc(N2C[C@H]3C[C@H]3C2=O)ncc1C1(n2cc(C(=O)N[C@H]3C[C@@H](c4cc(Cl)ccc4C#N)C3)cn2)CC1")
8.77
>>> assay_result("COc1cc(C(C)n2cc(C(=O)N[C@H]3C[C@@H](c4cc(Cl)ccc4C#N)C3)cn2)cnc1N1C[C@H]2C[C@H]2C1=O (single isomer, unassigned) [Example 13]")
9.00
>>> assay_result("Cc1cc([C@H](C)n2cc(C(=O)N[C@H]3C[C@@H](c4cc(Cl)ccc4C#N)C3)nn2)cnc1N1C[C@H]2C[C@H]2C1=O (single isomer, unassigned)")
8.82
>>> assay_result("COc1cc(N2C[C@H]3C[C@H]3C2=O)ncc1C(C)n1cc(C(=O)N[C@H]2C[C@@H](c3cc(Cl)ccc3C#N)C2)nn1 (single isomer, unassigned) [Example 89]")
8.96
>>> assay_result("C[C@H](c1cncc(N2C[C@H]3C[C@H]3C2=O)c1)n1cc(C(=O)N[C@H]2C[C@@H](c3cc(Cl)ccc3C#N)C2)nn1 (single isomer, unassigned)")
8.80
>>> assay_result("Cc1cc(N2C[C@H]3C[C@H]3C2=O)ncc1C(C)n1cc(C(=O)N[C@H]2C[C@@H](c3cc(F)ccc3C#N)C2)cn1 (single isomer, unassigned) [Example 34]")
8.29
